Consider the following Ki values measured on S2R (Rattus norvegicus, UniProt Q5U3Y7).
Sequence (Q5U3Y7 whole entry): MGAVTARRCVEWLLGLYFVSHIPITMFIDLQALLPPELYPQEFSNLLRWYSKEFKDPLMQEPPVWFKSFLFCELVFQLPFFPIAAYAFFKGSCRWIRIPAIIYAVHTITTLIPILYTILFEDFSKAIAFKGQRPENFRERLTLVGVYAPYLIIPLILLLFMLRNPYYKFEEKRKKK

Please review the entries below; each comes with its answer.
O=C(c1ccc(-c2ccccc2)cc1)N1CCN(c2ccc(O)cc2)CC1 [Compound 13]    > 10 µM
O=C(Cc1ccccc1Br)N1CCN(Cc2ccc(F)cc2)CC1 [Compound 10]    > 10 µM
O=C(CCN1CCC(Cc2ccccc2)CC1)N1CCN(c2ccc(O)cc2)CC1 [Compound 4]    1 µM
O=C(c1ccccc1)N1CCN(c2ccc(O)cc2)CC1 [Compound 12]    > 10 µM
O=C(CN1CCC(Cc2ccccc2)CC1)N1CCN(c2ccc(O)cc2)CC1 [Compound 2]    1.2 µM

The record that follows has no Ki shown yet.
Problem: For O=C(c1cc2ccccc2s1)N1CCN(Cc2ccc(F)cc2)CC1 [Compound 6] , write its Ki.
Result: > 10 µM
